Tested on: Escherichia coli TOP10
Assay: shrunken log2 fold change of peptide-encoding DNA abundance (4.5 h post-induction vs induction); higher = less antimicrobial activity (less host growth inhibition)
Details: time post-induction: 4.5 h; library: site-saturation at positions 5, 18, 19, 20
MEASURED ENDPOINT: shrunken log2 fold change
Lab note: record just the number, no unit beside it.

Query: Which value of shrunken log2 fold change has been reported for `RRIRLRPPRLPRPRPRPWPMPRP` in the records?
Response: -0.0188

Query: Which value of shrunken log2 fold change has been reported for `RRIRHRPPRLPRPRPRPGQLPRP` in the records?
Response: 0.174

Query: Which value of shrunken log2 fold change has been reported for `RRIRDRPPRLPRPRPRPCMIPRP` in the records?
Response: 0.28

Query: Which value of shrunken log2 fold change has been reported for `RRIRYRPPRLPRPRPRPYGAPRP` in the records?
Response: -0.202

Query: Which value of shrunken log2 fold change has been reported for `RRIRGRPPRLPRPRPRPWNRPRP` in the records?
Response: -0.0647

Query: Which value of shrunken log2 fold change has been reported for `RRIRCRPPRLPRPRPRPSPKPRP` in the records?
Response: -0.326

Query: Which value of shrunken log2 fold change has been reported for `RRIRFRPPRLPRPRPRPMHIPRP` in the records?
Response: -0.419

Query: Which value of shrunken log2 fold change has been reported for `RRIRGRPPRLPRPRPRPMQKPRP` in the records?
Response: 0.61

Query: Which value of shrunken log2 fold change has been reported for `RRIRIRPPRLPRPRPRPSIEPRP` in the records?
Response: -0.407

====

Tested on: Escherichia coli TOP10;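 also: peptides expressed intracellularly from a pBAD plasmid library in pooled LB shake-flask culture, induced with 0.3% L-arabinose, DNA abundance read by NGS, three biological replicates, DESeq2 with apeglm shrinkage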
Assay: shrunken log2 fold change of peptide-encoding DNA abundance (4.5 h post-induction vs induction); higher = less antimicrobial activity (less host growth inhibition)
Settings: time post-induction: 4.5 h; library: site-saturation at positions 5, 18, 19, 20
MEASURED ENDPOINT: shrunken log2 fold change
Lab note: record just the number, no unit beside it.

Query: Which value of shrunken log2 fold change has been reported for `RRIRARPPRLPRPRPRPQGNPRP` in the records?
Response: -0.144

Query: Which value of shrunken log2 fold change has been reported for `RRIRKRPPRLPRPRPRPQNIPRP` in the records?
Response: -0.21

Query: Which value of shrunken log2 fold change has been reported for `RRIRIRPPRLPRPRPRPYRDPRP` in the records?
Response: -0.0075

Query: Which value of shrunken log2 fold change has been reported for `RRIRVRPPRLPRPRPRPQLSPRP` in the records?
Response: 0.132

Query: Which value of shrunken log2 fold change has been reported for `RRIRRRPPRLPRPRPRPQLKPRP` in the records?
Response: 0.0988

Query: Which value of shrunken log2 fold change has been reported for `RRIRCRPPRLPRPRPRPPCTPRP` in the records?
Response: -0.0939

Query: Which value of shrunken log2 fold change has been reported for `RRIRQRPPRLPRPRPRPQKAPRP` in the records?
Response: -0.109

Query: Which value of shrunken log2 fold change has been reported for `RRIRSRPPRLPRPRPRPQWCPRP` in the records?
Response: 0.111

Query: Which value of shrunken log2 fold change has been reported for `RRIRCRPPRLPRPRPRPNLWPRP` in the records?
Response: 0.00489

Query: Which value of shrunken log2 fold change has been reported for `RRIRGRPPRLPRPRPRPRLIPRP` in the records?
Response: 0.166

Query: Which value of shrunken log2 fold change has been reported for `RRIRERPPRLPRPRPRPATLPRP` in the records?
Response: -0.274

Query: Which value of shrunken log2 fold change has been reported for `RRIRPRPPRLPRPRPRPHCRPRP` in the records?
Response: -0.198

Query: Which value of shrunken log2 fold change has been reported for `RRIRWRPPRLPRPRPRPRCRPRP` in the records?
Response: 0.371

Query: Which value of shrunken log2 fold change has been reported for `RRIRFRPPRLPRPRPRPQHEPRP` in the records?
Response: -0.25

Query: Which value of shrunken log2 fold change has been reported for `RRIRNRPPRLPRPRPRPSWYPRP` in the records?
Response: -0.81

Query: Which value of shrunken log2 fold change has been reported for `RRIRIRPPRLPRPRPRPNMAPRP` in the records?
Response: -0.344

Query: Which value of shrunken log2 fold change has been reported for `RRIRMRPPRLPRPRPRPCMRPRP` in the records?
Response: 0.889

Query: Which value of shrunken log2 fold change has been reported for `RRIRIRPPRLPRPRPRPLKCPRP` in the records?
Response: 0.0563

Query: Which value of shrunken log2 fold change has been reported for `RRIRARPPRLPRPRPRPWCGPRP` in the records?
Response: 0.0572

Query: Which value of shrunken log2 fold change has been reported for `RRIRRRPPRLPRPRPRPEWVPRP` in the records?
Response: 0.344

Query: Which value of shrunken log2 fold change has been reported for `RRIRERPPRLPRPRPRPRSEPRP` in the records?
Response: -0.0574

Query: Which value of shrunken log2 fold change has been reported for `RRIRTRPPRLPRPRPRPTNQPRP` in the records?
Response: -0.067

Query: Which value of shrunken log2 fold change has been reported for `RRIRQRPPRLPRPRPRPTRDPRP` in the records?
Response: -0.271

Query: Which value of shrunken log2 fold change has been reported for `RRIRVRPPRLPRPRPRPFSYPRP` in the records?
Response: -0.012

Query: Which value of shrunken log2 fold change has been reported for `RRIRRRPPRLPRPRPRPKTAPRP` in the records?
Response: 0.707

Query: Which value of shrunken log2 fold change has been reported for `RRIRWRPPRLPRPRPRPQDDPRP` in the records?
Response: 0.0379

Query: Which value of shrunken log2 fold change has been reported for `RRIRTRPPRLPRPRPRPGIRPRP` in the records?
Response: -0.0147

Query: Which value of shrunken log2 fold change has been reported for `RRIRSRPPRLPRPRPRPFQIPRP` in the records?
Response: 0.0213

Query: Which value of shrunken log2 fold change has been reported for `RRIRTRPPRLPRPRPRPYDPPRP` in the records?
Response: -0.0474

Query: Which value of shrunken log2 fold change has been reported for `RRIRCRPPRLPRPRPRPNPQPRP` in the records?
Response: -0.359

Query: Which value of shrunken log2 fold change has been reported for `RRIRHRPPRLPRPRPRPMVGPRP` in the records?
Response: -0.0276

Query: Which value of shrunken log2 fold change has been reported for `RRIRSRPPRLPRPRPRPAFSPRP` in the records?
Response: -0.145

Query: Which value of shrunken log2 fold change has been reported for `RRIRVRPPRLPRPRPRPKPPPRP` in the records?
Response: 0.318
